Please find below pIC50 measurements for Fibroblast growth factor receptor 4 (Homo sapiens), combined from several publications.
pIC50: −log10 of the molar value.

Reference set (7 entries):
- Compound: "C=CC(=O)Nc1cc(N2CCC(N3CCOCC3)CC2)ccc1Nc1ncc(C#N)c(Nc2ccccc2OC(C)C)n1"
  Measured value: "7.00 to 7.30"
- Compound: "C=CC(=O)NC1CCC1Nc1ncc2cc(-c3c(Cl)c(OC)cc(OC)c3Cl)ccc2n1 (centres unmarked)"
  Measured value: "6.00 to 7.00"
- Compound: "C=CC(=O)Nc1cn(CCN(C)C)nc1-c1n[nH]c2c1CCC[C@@H](c1c(F)c(OC)cc(OC)c1F)C2"
  Measured value: "> 8.00"
- Compound: "C=CC(=O)NC1COCC1Nc1ncc2cc(-c3c(Cl)c(OC)cc(OC)c3Cl)ccc2n1 (centres unmarked)"
  Measured value: "> 8.00"
- Compound: "C=CC(=O)Nc1ccc(F)c(-c2cc3c(cn2)cc(-c2c(F)c(OC)cc(OC)c2Cl)c(=O)n3CC)c1"
  Measured value: "> 8.00"
- Compound: "C=CC(=O)N[C@H]1CCCC[C@H]1Nc1ncc2cc(-c3c(Cl)c(OC)cc(OC)c3Cl)c(=O)n(CC)c2n1"
  Measured value: "7.00 to 8.00"
- Compound: "N#Cc1cnc(NC(=O)N2CCCc3cc(CN4CCN5CCC[C@H]5C4=O)c(C=O)nc32)cc1NC1CC1"
  Measured value: "> 8.30"

Next item in the queue.
Ask: Fill blank: measured pIC50 of the compound C=CC(=O)N[C@H]1CCN(C(=O)OC(C)(C)C)C[C@H]1Nc1ncc2cc(-c3c(Cl)c(OC)cc(OC)c3Cl)ccc2n1 is ____.
Result: < 6.00

###

Please find below IC50 measurements for Fibroblast growth factor receptor 4 (Homo sapiens, UniProt P22455), combined from several publications.

Reference set (2 entries):
- Cpd smiles: "[2H]C1([2H])C([2H])([2H])C2(COc3cccc(-c4cn([C@H]5C[C@](O)(CO)C5)c5ncnc(N)c45)c3F)OC1([2H])C([2H])([2H])C2([2H])[2H]"
  IC50: "> 10000 nM"
- Cpd smiles: "C=CC(=O)Nc1cc(N2CCC(N(C)C)CC2)ccc1Nc1cc(Nc2ccccc2OC(C)C)c(C#N)cn1"
  IC50: "10 to 50 nM"

Ask: Fill blank: measured IC50 of the compound C=CC(=O)N1CC=C(c2cc3c(Oc4ccc(NC(=O)NC5CC5)c(Cl)c4)ccnc3cc2OC)C1 is ____.
Result: < 5 nM

###

Please find below pIC50 measurements for UniProtKB P22455, combined from several publications.
pIC50: −log10 of the molar value.

Reference set (2 entries):
- Molecule: "C=CC(=O)N(C)c1ncc2nc(-c3cc(OC)cc(OC)c3)c(=O)n(C)c2n1"
  pIC50: "6.00 to 7.00"
- Molecule: "C=CC(=O)Nc1cccc(C)c1Nc1ncc2cc(-c3c(Cl)c(OC)cc(OC)c3Cl)c(=O)n(CC3CCN(C(=O)/C=C/CN(C)C)CC3)c2n1"
  pIC50: "> 7.30"

Ask: Fill blank: measured pIC50 of the molecule C=CC(=O)N[C@H]1CCOC[C@H]1Nc1ncc2cc(-c3c(Cl)c(OC)cc(OC)c3Cl)cc(Cl)c2n1 is ____.
Result: > 8.00

Ask: Same lookup for C=CC(=O)Nc1cc(N2CCC(N3CCN(C)CC3)CC2)c(OC)cc1Nc1ncc(C#N)c(Nc2ccccc2OC(C)C)n1 , please.
Result: 7.00 to 7.30

###

Please find below IC50 measurements for Fibroblast growth factor receptor 4 (Homo sapiens), combined from several publications.

Reference set (3 entries):
- Molecule: "C#CC(=O)N[C@H]1CCC[C@H]1Nc1cc2c(cn1)cc(-c1c(Cl)c(OC)cc(OC)c1Cl)c(=O)n2C"
  IC50: "< 10 nM"
- Molecule: "C=CC(=O)NC1CN(C(=O)CO)CC1Nc1ncc2cc(-c3c(Cl)c(OC)cc(OC)c3Cl)ccc2n1 (stereo not shown)"
  IC50: "< 10 nM"
- Molecule: "COc1cc(OC)c(F)c([C@H]2CCc3c(-c4c(NC(=O)/C=C/C(=O)OC(C)C)cnn4C)n[nH]c3C2)c1F"
  IC50: "> 100 nM"

Next item in the queue.
Ask: Fill blank: measured IC50 of the molecule C=CC(=O)Nc1cccc(C)c1Nc1ncc2cc(-c3c(Cl)c(OC)cc(OC)c3Cl)c(=O)n(CC3CCN(C(=O)/C=C/CN(C)C)C3)c2n1 (stereo not shown) is ____.
Result: < 50 nM

###

Please find below IC50 measurements for Fibroblast growth factor receptor 4 (Homo sapiens, UniProt P22455), combined from several publications.

Reference set (2 entries):
- Cpd smiles: "C=CC(=O)Nc1cc(N2C[C@@H](C)O[C@@H](C)C2)ccc1Nc1ncc2cc(-c3c(Cl)c(OC)cc(OC)c3Cl)c3nccn3c2n1"
  IC50: "< 0.05 µM"
- Cpd smiles: "CO[C@H]1CCN(c2cc(NC(=O)N3CCCc4cc(CN5CCN(C)CC5=O)c(C=O)nc43)ncc2C#N)C1"
  IC50: "0.00249 µM"

Next item in the queue.
Ask: IC50 of C=CC(=O)Nc1cc(N2CCN(CC)CC2)ccc1Nc1ncc(C#N)c(Nc2c(C)cccc2OC(C)C)n1 on Fibroblast growth factor receptor 4 (Homo sapiens, UniProt P22455)?
Result: 0.1 to 1 µM

###

pIC50: −log10 of the molar value.
Please find below pIC50 measurements for Fibroblast growth factor receptor 4 (Homo sapiens), combined from several publications.

Reference set (2 entries):
- Cpd smiles: "C=CC(=O)Nc1cc(N2CCN(CC)CC2)ccc1Nc1ncc(C#N)c(Nc2ccc(Cl)cc2OC(C)C)n1"
  pIC50: "7.30 to 8.00"
- Cpd smiles: "Nc1ncnc2c1c(-c1ccc(Oc3ccccc3)cc1)nn2[C@@H]1CCCN(S(=O)(=O)c2c(F)c(F)c(F)c(F)c2F)C1"
  pIC50: "6.52 to 8.00"

Ask: Fill blank: measured pIC50 of the molecule COCCOc1ccc(Nc2ncc(F)c(Nc3cccc(NS(=O)(=O)c4c(F)c(F)c(F)c(F)c4F)c3)n2)cc1 is ____.
Result: 6.52 to 8.00

Ask: Same lookup for C=CC(=O)N1CCc2cc(F)c(-c3ncc4cc(-c5c(Cl)c(OC)cc(OC)c5Cl)ccc4n3)cc21 , please.
Result: > 8.00

Ask: Same lookup for C=CC(=O)Nc1cc(N2CCC(N(C)C3CCC3)CC2)ccc1Nc1ncc(C#N)c(Nc2ccccc2OC(C)C)n1 , please.
Result: 7.30 to 8.00

Ask: Same lookup for C=CC(=O)N1CCOc2ccc(-c3cc4c(cn3)cc(-c3c(Cl)c(OC)cc(OC)c3Cl)c(=O)n4C3CCCC3)cc21 , please.
Result: 7.00 to 8.00

Ask: Same lookup for C=CC(=O)N[C@H]1CCC[C@@H]1Nc1ncc2cc(-c3c(Cl)c(OC)cc(OC)c3Cl)ccc2n1 , please.
Result: 6.00 to 7.00

Ask: Same lookup for C=CC(=O)N[C@H]1C[C@@H](C(=O)OC)C[C@H]1Nc1ncc2cc(-c3c(Cl)c(OC)cc(OC)c3Cl)ccc2n1 , please.
Result: 7.00 to 8.00

###

Please find below IC50 measurements for Fibroblast growth factor receptor 4 (Homo sapiens, UniProt P22455), combined from several publications.

Reference set (4 entries):
- Molecule: "COCCNc1cc(NC(=O)N2c3nc(C=O)ccc3C3(NC(=O)c4cnn(C)c4)CC2C3)ncc1C#N"
  Measurement name: "IC50"
  Measured value: "0.5 nM"
- Molecule: "COc1cc(OC)c(F)c(COc2cnc(NC(=O)N3CCCc4cc(CN5CCN(C)CC5=O)c(C=O)nc43)nc2)c1F"
  Measurement name: "IC50"
  Measured value: "< 0.5 nM"
- Molecule: "C=CC(=O)N1CCC(c2cc(-c3sc4c(OC)cc(C)cc4c3C)c3c(N)ncnn23)C1 (single isomer, unassigned)"
  Measurement name: "IC50"
  Measured value: "0.7 nM"
- Molecule: "C=CC(=O)Nc1cc(Cl)cc(C)c1Nc1ncc2cc(-c3c(Cl)c(OC)cc(OC)c3Cl)ccc2n1"
  Measurement name: "IC50"
  Measured value: "10 to 100 nM"

Ask: IC50 of C=CC(=O)Nc1cn(CCN(C)C)nc1-c1n[nH]c2c1CCC[C@H](c1c(F)c(OC)cc(OC)c1F)C2 on Fibroblast growth factor receptor 4 (Homo sapiens, UniProt P22455)?
Result: < 10 nM

Ask: Same lookup for C=CC(=O)Nc1cc(N2CCC(N(C)C3CCOCC3)CC2)ccc1Nc1ncc(C#N)c(Nc2ccccc2OC(C)C)n1 , please.
Result: ≤ 10 nM

Ask: Same lookup for C=CC(=O)N1CCC(c2cc3c(Oc4ccc(NC(=O)NC5CC5)c(Cl)c4)ccnc3cc2OC)C1 (stereo not shown) , please.
Result: < 5 nM
